The values you see were collected from ChEMBL document CHEMBL1139408.

target: UniProt:P07858
Where a SMILES comes first, the peptide text is derived from it. [ ]: non-standard residue; d: D form. The star is where a group is joined. Hydrocinnamoyl = O=C(CCc1ccccc1)*; Nle = CCCC[C@H](N)C(=O)O; Ac5c = NC1(C(=O)O)CCCC1; Deg = CCC(N)(CC)C(=O)O
readout label: pKi
By convention, pKi is the negative base-10 log of a molar concentration.

{"molecule": "CCCC[C@@H](C=O)NC(=O)[C@H](CC(C)C)NC(=O)[C@H](CC(C)C)NC(C)=O (Ac-Leu-Leu-[Nle]-aldehyde)", "pKi": 6.82}
{"molecule": "CCC(CC)(NC(=O)CCc1ccccc1)C(=O)N[C@H](C=O)Cc1ccccc1 (Hydrocinnamoyl-[Deg]-Phe-aldehyde)", "pKi": 5.54}

QUERY: For UniProt:P07858, provide pKi of O=C[C@H](Cc1ccccc1)NC(=O)C1(NC(=O)CCc2ccccc2)CCCC1 (Hydrocinnamoyl-[Ac5c]-Phe-aldehyde) please.
RESULT: 6.06

---

biological target: Calpain-1 catalytic subunit (Sus scrofa, UniProt P35750); assay: Inhibition of pig erythrocyte mu-calpain
Sequence (P35750 whole entry): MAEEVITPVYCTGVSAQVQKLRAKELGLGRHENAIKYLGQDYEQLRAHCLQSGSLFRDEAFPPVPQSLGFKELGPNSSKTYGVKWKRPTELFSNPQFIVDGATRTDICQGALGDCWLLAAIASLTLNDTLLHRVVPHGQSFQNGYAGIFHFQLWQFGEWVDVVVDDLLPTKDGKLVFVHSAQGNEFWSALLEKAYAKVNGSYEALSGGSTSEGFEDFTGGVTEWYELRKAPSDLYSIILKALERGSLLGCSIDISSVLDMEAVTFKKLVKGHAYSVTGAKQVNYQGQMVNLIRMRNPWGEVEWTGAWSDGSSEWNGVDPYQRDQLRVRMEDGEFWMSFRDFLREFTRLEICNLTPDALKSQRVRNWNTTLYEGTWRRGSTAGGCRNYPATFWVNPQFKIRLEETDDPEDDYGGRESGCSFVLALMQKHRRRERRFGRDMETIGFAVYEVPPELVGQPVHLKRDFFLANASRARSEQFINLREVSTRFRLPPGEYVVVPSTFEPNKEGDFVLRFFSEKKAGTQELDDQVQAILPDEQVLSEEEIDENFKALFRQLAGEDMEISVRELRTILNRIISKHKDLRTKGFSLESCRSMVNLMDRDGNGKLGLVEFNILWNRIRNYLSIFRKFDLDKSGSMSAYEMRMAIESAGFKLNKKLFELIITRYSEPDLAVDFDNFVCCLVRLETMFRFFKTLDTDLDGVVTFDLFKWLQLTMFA
Where a SMILES comes first, the peptide text is derived from it. [ ]: non-standard residue; d: D form. The star is where a group is joined. Hydrocinnamoyl = O=C(CCc1ccccc1)*; Nle = CCCC[C@H](N)C(=O)O; Ac5c = NC1(C(=O)O)CCCC1; Deg = CCC(N)(CC)C(=O)O
readout label: Ki (nM)
Enter your answer as a number in nM; do not include the unit.

Reference set (2 entries):
{"molecule": "CCCC[C@@H](C=O)NC(=O)[C@H](CC(C)C)NC(=O)[C@H](CC(C)C)NC(C)=O (Ac-Leu-Leu-[Nle]-aldehyde)", "endpoint result": 190}
{"molecule": "O=C[C@H](Cc1ccccc1)NC(=O)C1(NC(=O)CCc2ccccc2)CCCC1 (Hydrocinnamoyl-[Ac5c]-Phe-aldehyde)", "endpoint result": 1940}

Read the next record carefully.
QUERY: Ki lookup needed for CCC(CC)(NC(=O)CCc1ccccc1)C(=O)N[C@H](C=O)Cc1ccccc1 (Hydrocinnamoyl-[Deg]-Phe-aldehyde) , thanks.
RESULT: 80
